# measured.target: Serotonin 2 receptors; 5-HT2a & 5-HT2c (Homo sapiens) (UniProt P28223+P28335)
# assay: Selectivity index determined from binding affinities of 5-HT2C and 5-HT2A.
# Format: protein assay
measured.metric: Selectivity

| mol | measured.target | qualifier.symbol | test.value |
| --- | --- | --- | --- |
| CSc1cc2c(cc1C(F)(F)F)N(C(=O)Nc1cccc(-c3ccncc3)c1)CC2 | Serotonin 2 receptors; 5-HT2a & 5-HT2c (Homo sapiens) (UniProt P28223+P28335) | = | 50 |
| COc1cc2c(cc1C(F)(F)F)N(C(=O)Nc1cccc(-c3ccccn3)c1)CC2 | Serotonin 2 receptors; 5-HT2a & 5-HT2c (Homo sapiens) (UniProt P28223+P28335) | = | 25 |
| CSc1cc2c(cc1C(F)(F)F)N(C(=O)Nc1cccc(-c3cccnc3)c1)CC2 | Serotonin 2 receptors; 5-HT2a & 5-HT2c (Homo sapiens) (UniProt P28223+P28335) | = | 50 |
| COc1cc2c(cc1C(F)(F)F)N(C(=O)Nc1ccc(C)c(-c3cnccc3C)c1)CC2 | Serotonin 2 receptors; 5-HT2a & 5-HT2c (Homo sapiens) (UniProt P28223+P28335) | > | 20000 |
| COc1cc2c(cc1C(F)(F)F)N(C(=O)Nc1ccc(-c3ccncc3)cc1)CC2 | Serotonin 2 receptors; 5-HT2a & 5-HT2c (Homo sapiens) (UniProt P28223+P28335) | > | 2000 |
| COc1cc2c(cc1C(F)(F)F)N(C(=O)Nc1cccc(-c3c(C)ccnc3C)c1)CC2 | Serotonin 2 receptors; 5-HT2a & 5-HT2c (Homo sapiens) (UniProt P28223+P28335) | = | 80 |
| CCc1cc(NC(=O)N2CCc3cc(OC)c(C(F)(F)F)cc32)cc(-c2cccnc2)c1 | Serotonin 2 receptors; 5-HT2a & 5-HT2c (Homo sapiens) (UniProt P28223+P28335) | = | 320 |
| COc1cc2c(cc1C(F)(F)F)N(C(=O)Nc1cccc(-c3cccnc3C)c1)CC2 | Serotonin 2 receptors; 5-HT2a & 5-HT2c (Homo sapiens) (UniProt P28223+P28335) | = | 100 |

====

# measured.target: 5-hydroxytryptamine receptor 2A (Homo sapiens)
# Sequence (P28223 whole entry): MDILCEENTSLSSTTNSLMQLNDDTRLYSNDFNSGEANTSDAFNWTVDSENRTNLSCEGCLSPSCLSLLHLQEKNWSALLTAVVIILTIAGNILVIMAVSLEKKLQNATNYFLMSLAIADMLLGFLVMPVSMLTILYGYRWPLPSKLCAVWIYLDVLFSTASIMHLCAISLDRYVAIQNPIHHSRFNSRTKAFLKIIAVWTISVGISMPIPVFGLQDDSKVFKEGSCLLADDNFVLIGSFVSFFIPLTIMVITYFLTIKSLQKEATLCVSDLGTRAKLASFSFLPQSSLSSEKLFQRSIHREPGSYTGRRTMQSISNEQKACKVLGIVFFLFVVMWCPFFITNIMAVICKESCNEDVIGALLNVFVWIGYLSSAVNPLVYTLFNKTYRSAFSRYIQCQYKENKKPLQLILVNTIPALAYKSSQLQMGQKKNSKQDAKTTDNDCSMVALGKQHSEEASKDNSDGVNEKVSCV
# assay: Binding affinity towards human cloned 5-hydroxytryptamine receptor 2A in HEK293 cells, using [3H]ketanserin as radioligand.
pKi: −log10 of the molar value.
# Lookup of reported pKi keyed by entry

| mol | pKi |
| --- | --- |
| COc1cc2c(cc1C(F)(F)F)N(C(=O)Nc1cc(Br)cc(-c3cccnc3)c1)CC2 | < 6.00 |
| COc1cc2c(cc1C(F)(F)F)N(C(=O)Nc1cncc(-c3c(F)cccc3F)c1)CC2 | < 5.00 |
| COc1cc2c(cc1C(F)(F)F)N(C(=O)Nc1ccc(C)c(-c3cnccc3C)c1)CC2 | < 5.20 |

====

# measured.target: 5-hydroxytryptamine receptor 2C (Homo sapiens)
# Sequence (P28335 whole entry): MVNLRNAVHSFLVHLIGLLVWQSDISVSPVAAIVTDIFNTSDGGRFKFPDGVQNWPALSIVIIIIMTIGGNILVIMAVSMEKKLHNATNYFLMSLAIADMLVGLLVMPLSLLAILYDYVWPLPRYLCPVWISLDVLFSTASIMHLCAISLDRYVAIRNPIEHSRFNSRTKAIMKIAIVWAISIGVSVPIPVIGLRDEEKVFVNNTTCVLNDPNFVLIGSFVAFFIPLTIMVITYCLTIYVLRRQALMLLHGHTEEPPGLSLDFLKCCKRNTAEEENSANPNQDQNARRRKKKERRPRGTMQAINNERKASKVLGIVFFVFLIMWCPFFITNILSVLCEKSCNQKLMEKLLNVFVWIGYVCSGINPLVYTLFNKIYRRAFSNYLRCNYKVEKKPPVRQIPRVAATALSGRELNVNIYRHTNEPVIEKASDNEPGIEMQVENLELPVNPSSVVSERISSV
# assay: Binding affinity towards human cloned 5-hydroxytryptamine receptor 2C in HEK293 cells, using [3H]mesulergine as radioligand.
# Lookup of reported Ki keyed by entry
measured.metric: Ki (nM)

| mol | measured.target | value.unit | test.value |
| --- | --- | --- | --- |
| COc1cc2c(cc1C(F)(F)F)N(C(=O)Nc1cc(F)cc(-c3cccnc3)c1)CC2 | 5-hydroxytryptamine receptor 2C (Homo sapiens) | nM | 1 |
| COc1cc2c(cc1C(F)(F)F)N(C(=O)Nc1cccc(-c3cccnc3)c1)CC2 | 5-hydroxytryptamine receptor 2C (Homo sapiens) | nM | 1 |
| COc1cc2c(cc1C(F)(F)F)N(C(=O)Nc1cncc(-c3c(F)cccc3F)c1)CC2 | 5-hydroxytryptamine receptor 2C (Homo sapiens) | nM | 25.1 |
| COc1cc2c(cc1C(F)(F)F)N(C(=O)Nc1cccc(-c3ccccn3)c1)CC2 | 5-hydroxytryptamine receptor 2C (Homo sapiens) | nM | 20 |
| COc1cc2c(cc1C(F)(F)F)N(C(=O)Nc1ccc(-c3cccnc3)cc1)CC2 | 5-hydroxytryptamine receptor 2C (Homo sapiens) | nM | 15.8 |
| COc1cc2c(cc1C(F)(F)F)N(C(=O)Nc1cncc(-c3ccc(F)cc3)c1)CC2 | 5-hydroxytryptamine receptor 2C (Homo sapiens) | nM | 6.31 |
| COc1cc2c(cc1C(F)(F)F)N(C(=O)Nc1cc(-c3cccnc3)ccc1F)CC2 | 5-hydroxytryptamine receptor 2C (Homo sapiens) | nM | 2000 |
| CSc1cc2c(cc1C(F)(F)F)N(C(=O)Nc1cccc(-c3ccncc3)c1)CC2 | 5-hydroxytryptamine receptor 2C (Homo sapiens) | nM | 3.16 |
| COc1cc2c(cc1C(F)(F)F)N(C(=O)Nc1cccc(-c3cccnc3)c1C)CC2 | 5-hydroxytryptamine receptor 2C (Homo sapiens) | nM | 25.1 |
| COc1cc2c(cc1C(F)(F)F)N(C(=O)Nc1cc(-c3ccccc3)cc(-c3cccnc3)c1)CC2 | 5-hydroxytryptamine receptor 2C (Homo sapiens) | nM | 2.51 |
| COc1cc2c(cc1C(F)(F)F)N(C(=O)Nc1cccc(-c3cccnc3)c1Cl)CC2 | 5-hydroxytryptamine receptor 2C (Homo sapiens) | nM | 10 |
| COc1cc2c(cc1C(F)(F)F)N(C(=O)Nc1ccc(Cl)c(-c3cccnc3)c1)CC2 | 5-hydroxytryptamine receptor 2C (Homo sapiens) | nM | 5.01 |
| COc1cc2c(cc1C(F)(F)F)N(C(=O)Nc1ccc(-c3ccncc3)cc1)CC2 | 5-hydroxytryptamine receptor 2C (Homo sapiens) | nM | 5.01 |

====

# Lookup of reported Ki keyed by entry
# measured.target: UniProtKB P28335
# assay: Binding affinity towards human cloned 5-hydroxytryptamine receptor 2C in HEK293 cells, using [3H]mesulergine as radioligand.
measured.metric: Ki (nM)

| mol | measured.target | value.unit | test.value |
| --- | --- | --- | --- |
| COc1cc2c(cc1C(F)(F)F)N(C(=O)Nc1cncc(-c3ccncc3)c1)CC2 | UniProtKB P28335 | nM | 0.631 |
| COc1cc2c(cc1C(F)(F)F)N(C(=O)Nc1ccc(-c3cccnc3)nc1)CC2 | UniProtKB P28335 | nM | 5.01 |
| COc1cc2c(cc1C(F)(F)F)N(C(=O)Nc1cccc(-c3cnccc3C)c1)CC2 | UniProtKB P28335 | nM | 0.631 |
